molecular target: FRMPD3, Q5JV73; experiment: holdup assay; design: key: below the threshold = too weak to quantify, mostly under pKd 3.1 to 4; conditions: plain residues with an end cap or a label only (N-terminal biotin on a linker: ahx)
Sequence (Q5JV73 12-100): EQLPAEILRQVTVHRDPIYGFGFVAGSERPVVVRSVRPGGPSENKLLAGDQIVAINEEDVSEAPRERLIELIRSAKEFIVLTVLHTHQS
MEASURED_QUANTITY: pKd

>>> observed_value("TESNLQTSSC [CGN, Q9P2M7]")
"below the threshold"
>>> observed_value("HTHSYIETHV [CNKSR2, Q8WXI2]")
"below the threshold"
>>> observed_value("QNTDDVQTSF [ACE2, Q9BYF1]")
3.78
>>> observed_value("QDEKVKESYV [ABCA1, O95477]")
"below the threshold"
>>> observed_value("TEAKLTETNA [MYO18A, Q92614]")
"below the threshold"
